# TESTED_ON: recombinant human MASP2 (amino acids 297-686, C-terminal His Tag) (human) (UniProt O00187)
# Sequence (O00187 other isoform, or with tags, fused parts or gaps limits assumed): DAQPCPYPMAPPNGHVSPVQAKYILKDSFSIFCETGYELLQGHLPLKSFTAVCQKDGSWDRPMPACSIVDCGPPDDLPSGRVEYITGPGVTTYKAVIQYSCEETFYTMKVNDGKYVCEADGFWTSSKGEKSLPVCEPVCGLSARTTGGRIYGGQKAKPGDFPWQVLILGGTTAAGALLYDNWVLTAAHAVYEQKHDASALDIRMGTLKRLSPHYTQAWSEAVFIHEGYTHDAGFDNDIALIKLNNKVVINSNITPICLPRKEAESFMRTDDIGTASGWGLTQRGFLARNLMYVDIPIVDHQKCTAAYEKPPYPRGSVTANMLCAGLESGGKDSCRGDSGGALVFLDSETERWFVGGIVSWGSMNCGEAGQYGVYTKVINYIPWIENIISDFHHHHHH
# MEASUREMENT_DESCRIPTION: cell-based or functional assay
Bridges are numbered along the chain shown (N, C = ends). [ ]: non-standard residue; d: D form. Oic = O=C(O)[C@@H]1C[C@@H]2CCCC[C@@H]2N1; Trx = NC[C@H]1CC[C@H](C(=O)O)CC1; tBuAla = CC(C)(C)C[C@H](N)C(=O)O; Pen = CC(C)(S)[C@H](N)C(=O)O; NMeC = CN[C@@H](CS)C(=O)O; Abu = CC[C@H](N)C(=O)O; Ahx = NCCCCCC(=O)O; GABA = NCCCC(=O)O; Sar = CNCC(=O)O
Decide using human MASP2 IC50: a value greater than or equal to 100 nM is met, a smaller one is not met.

BINDER | CLASS
G[Trx]GICSRS[tBuAla]PPI[NMeC]IPD-NH2 (disulfide 5-13; lactam N-16; also: TFA salt) [Example 69: G**-(TXA)-GIC+SRS-((tBu)A)-PPI-((N-Me)C)+-IPD++-NH2] | met
[Ahx][Sar]GICSRSLP[Oic]I[Pen]IPE-NH2 (disulfide 5-13; lactam N-16; also: TFA salt) [Example 76: (Ahx)**-((N-Me)G)-GIC+SRSLP-(Oic)-I-(Pen)+-IPE++-NH2] | met
cyclo([GABA]ICSRS[tBuAla]PPI[NMeC]IPD) (disulfide 3-11; also: TFA salt) [Example 36: (Gamma-Abu)**-IC+SRS-((tBu)A)-PPI-((N-Me)C)+-IPD**] | met
cyclo([Ahx][Abu]ICSRS[tBuAla]PPI[NMeC]IPD) (disulfide 4-12; also: TFA salt) [Example 33: (Ahx)**-(Abu)-IC+SRS-((tBu)A)-PPI-((N-Me)C)+-IPD**] | not met
[Ahx]GICSRS[tBuAla]PPI[NMeC]IPD-NH2 (disulfide 4-12; lactam N-15; also: TFA salt) [Example 40: (Ahx)**-GIC+SRS-((tBu)A)-PPI-((N-Me)C)+-IPD++-NH2] | not met
cyclo([Ahx]GICSRS[tBuAla]PPI[NMeC]IPD) (disulfide 4-12; also: TFA salt) [Example 30: (Ahx)**-GIC+SRS-((tBu)A)-PPI-((N-Me)C)+-IPD**] | not met
cyclo(AGAICSRS[tBuAla]PPI[NMeC]IPD) (disulfide 5-13; also: TFA salt) [Example 31: A**GAIC+SRS-((tBu)A)-PPI-((N-Me)C)+-IPD**] | met

// provenance: patent US20240010684A1
